# procedure.details: self-splicing fitness, log relative to wild type (ln ratio); higher = more splicing; Tetrahymena group I intron in knt gene, E. coli kanamycin selection, DiMSum; sequences stand for … in CUCUCU…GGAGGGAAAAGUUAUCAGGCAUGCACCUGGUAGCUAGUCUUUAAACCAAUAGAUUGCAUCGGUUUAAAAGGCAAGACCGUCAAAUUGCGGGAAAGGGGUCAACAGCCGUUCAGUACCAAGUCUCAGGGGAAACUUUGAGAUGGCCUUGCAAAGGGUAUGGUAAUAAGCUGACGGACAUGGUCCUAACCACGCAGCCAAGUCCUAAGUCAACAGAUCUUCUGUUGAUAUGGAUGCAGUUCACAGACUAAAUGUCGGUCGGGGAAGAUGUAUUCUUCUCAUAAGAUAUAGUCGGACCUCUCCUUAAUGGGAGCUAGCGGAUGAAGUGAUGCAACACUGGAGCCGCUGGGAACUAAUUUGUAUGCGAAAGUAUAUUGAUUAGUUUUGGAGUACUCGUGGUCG;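 also: selection with 25 µg/mL kanamycin versus none on LB agar overnight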
# condition.context: 30 °C
measured.property: self-splicing fitness (ln)

> print(dat)
         sequence.record           measured.property  numeric.result
 1  CACCAGCAAUAUUACGAAAG  self-splicing fitness (ln)          -0.231
 2  GGAAAGCAAUAUUACGCCGC  self-splicing fitness (ln)           -2.48
 3  AACGAGCAAUAUUACGUAUC  self-splicing fitness (ln)           -3.69
 4  GACGAGCAAUAUUACGAAUU  self-splicing fitness (ln)           -3.49
 5  CCCUAGCAAUAUUACGUGUA  self-splicing fitness (ln)           -3.49
 6  AGGGAGCAAUAUUACGUUGG  self-splicing fitness (ln)           -4.08
 7  UGUCAGCAAUAUUACGUUCG  self-splicing fitness (ln)           0.194
 8  GCGAAGCAAUAUUACGGUUG  self-splicing fitness (ln)           -1.54
 9  AGUUAGCAAUAUUACGUACU  self-splicing fitness (ln)           -1.16
10  AAGGAGCAAUAUUACGGAGG  self-splicing fitness (ln)           -2.97
11  AGGAAGCAAUAUUACGAGCU  self-splicing fitness (ln)          -0.467
12  CUUAAGCAAUAUUACGGCGA  self-splicing fitness (ln)           -4.04
13  ACUUAGCAAUAUUACGUAAA  self-splicing fitness (ln)           -2.37
14  AGUGAGCAAUAUUACGAUGG  self-splicing fitness (ln)           -3.11
15  AUAUAGCAAUAUUACGCAGA  self-splicing fitness (ln)           -2.82
16  GACAAGCAAUAUUACGAUUC  self-splicing fitness (ln)          -0.734
